system tested: Adenosine receptor A3 (Homo sapiens)
Sequence (P0DMS8 whole entry): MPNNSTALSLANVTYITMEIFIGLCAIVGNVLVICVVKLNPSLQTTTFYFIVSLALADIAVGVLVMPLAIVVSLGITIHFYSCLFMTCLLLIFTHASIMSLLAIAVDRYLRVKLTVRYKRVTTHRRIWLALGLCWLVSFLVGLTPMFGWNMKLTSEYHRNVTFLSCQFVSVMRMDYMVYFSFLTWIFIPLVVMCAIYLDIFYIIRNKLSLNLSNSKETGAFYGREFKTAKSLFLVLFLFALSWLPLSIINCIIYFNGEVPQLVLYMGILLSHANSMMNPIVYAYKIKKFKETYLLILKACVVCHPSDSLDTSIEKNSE
pKi: −log10 of the molar value.
measured property: pKi

[Q] Find pKi (Adenosine receptor A3 (Homo sapiens)) for the entry CNC(=O)c1cnn(-c2nc(N)c3ncn([C@@H]4O[C@H](CO)[C@@H](O)[C@H]4O)c3n2)c1 [REGADENOSON ANHYDROUS]
[A] < 5.00

====

pKi: −log10 of the molar value.
As a worked illustration, we turn to pKi data collected for Adenosine receptor A2a (Sus scrofa).

[Q] I'd like to know its pKi. The compound in question is `CCCCc1c(C)nn(-c2nc(N)c3ncn([C@@H]4O[C@H](CO)[C@@H](O)[C@H]4O)c3n2)c1C`
[A] < 4.00

[Q] Give the measured pKi of `CCCc1c(C)nn(-c2nc(N)c3ncn([C@@H]4O[C@H](CO)[C@@H](O)[C@H]4O)c3n2)c1C` .
[A] < 4.00

[Q] Please report the recorded pKi for `Nc1nc(-c2cnn(Cc3ccccc3)c2)nc2c1ncn2[C@@H]1O[C@H](CO)[C@@H](O)[C@H]1O` .
[A] 5.80

====

Exercise: state measured Ki for each of the compounds provided.

[Q] Checklist item: Ki tested on Adenosine receptor A2a (Sus scrofa), entry `CNC(=O)Cn1cc(-c2nc(N)c3ncn([C@@H]4O[C@H](CO)[C@@H](O)[C@H]4O)c3n2)cn1` , value?
[A] > 100 µM

[Q] State its Ki on Adenosine receptor A2a (Sus scrofa): `CCCCCCCCCCn1cc(-c2nc(N)c3ncn([C@@H]4O[C@H](CO)[C@@H](O)[C@H]4O)c3n2)cn1`
[A] > 100 µM

[Q] Hello, I am looking for reported Ki with Adenosine receptor A2a (Sus scrofa) for `Nc1nc(-c2cn[nH]c2)nc2c1ncn2[C@@H]1O[C@H](CO)[C@@H](O)[C@H]1O` . Could you help?
[A] > 100 µM

[Q] Observed Ki on Adenosine receptor A2a (Sus scrofa) for `Nc1nc(-c2cnn(CC(=O)O)c2)nc2c1ncn2[C@@H]1O[C@H](CO)[C@@H](O)[C@H]1O` , please.
[A] > 100 µM

[Q] Lab request: please report Ki under test system Adenosine receptor A2a (Sus scrofa) for `Cn1cc(-c2nc(N)c3ncn([C@@H]4O[C@H](CO)[C@@H](O)[C@H]4O)c3n2)cn1`
[A] > 100 µM

[Q] Form: Entry = `CN(C)C(=O)Cn1cc(-c2nc(N)c3ncn([C@@H]4O[C@H](CO)[C@@H](O)[C@H]4O)c3n2)cn1` | System = Adenosine receptor A2a (Sus scrofa) | Ki = ____
[A] > 100 µM

[Q] Which measured Ki belongs to `CCNC(=O)Cn1cc(-c2nc(N)c3ncn([C@@H]4O[C@H](CO)[C@@H](O)[C@H]4O)c3n2)cn1` , tested on Adenosine receptor A2a (Sus scrofa)?
[A] > 100 µM

[Q] # value lookup — system Adenosine receptor A2a (Sus scrofa), readout Ki, item `Cc1cc(-c2ccccc2)nn1-c1nc(N)c2ncn([C@@H]3O[C@H](CO)[C@@H](O)[C@H]3O)c2n1`
[A] > 100 µM

[Q] Quick check: Ki on Adenosine receptor A2a (Sus scrofa), item `CCNC(=O)c1cnn(-c2nc(N)c3ncn([C@@H]4O[C@H](CO)[C@@H](O)[C@H]4O)c3n2)c1` ?
[A] 0.38 µM
